Tested on: ARP-1
Experiment: Cell killing with drug-conjugated 2° antibody (internalization), ARP-1
Type: cell-based, human
Details: Conjugate P 2° antibody 20 nM, 72 hrs
Span (%) below 80% gives not met; Span (%) at or above it gives met.

Some entries whose results are on file:
{"Molecule": "10F4: chicken antibody, VH SEQ ID NO 203, VL SEQ ID NO 225 (antibody, V domains shown, Synthetic 10F4, VH; Synthetic 10F4, VL) VH: AVTLDESGGGLQTPGGALSLVCKASGFTFSGYNMGWVRQAPGKGLEYVAGITYGTGSYTAYGAAVKGRATISRDNGQSTLRLQLNNLRAEDTATYYCARGGGLNSYGCSGANIDAWGHGTEVIVSS VL: ALTQPSSVSANLGGTVKITCSGGGNYFGSYYYGWYQQKAPGSAPVTVIYNNNNRPSDIPSRFSGSTSGSTSTLTISGVRAEDEAVYFCGGFDSSTDAIFGAGTTLTVL", "Answer label": "met"}
{"Molecule": "10E10: chicken antibody, VH SEQ ID NO 212, VL SEQ ID NO 234 (antibody, V domains shown, Synthetic 10E10, VH; Synthetic 10E10, VL) VH: AVTLDESGGGLQTPGGGLSLVCKASGFTFSSYGMGWMRQAPGKGLEFVARINSGGSSYTDYGSAVKGRATISRDDGQSTVRLQLNNLRAEDTGIYYCTRGGGGASIDGWGHGTEVIVSS VL: ALTQPSSVSANPGETVKITCSGGGNYAGSYYYGWYQQKSPGSAPLTVIYNSNNRPSDIPSRFSGSLSGSTGTLTITGVRAEDEAVYFCGGFDSSTDAIFGAGTTLTVL", "Answer label": "not met"}
{"Molecule": "9H1: chicken antibody, VH SEQ ID NO 210, VL SEQ ID NO 232 (antibody, V domains shown, Synthetic 9H1, VH; Synthetic 9H1, VL) VH: AVTLDESGGGLQTPGGALSLVCKGSGFTFSDYGMGWMRQAPGKGLQYVARINSAGSDTNYGSAVKGRATISRDDGQSTVRLQLSSLRAEDTGIYYCTRGGGGASIDGWGHGTEVIVSS VL: ALTQPSSVSANPGETVKITCSGGGSYYGSYYYGWYQQKSPGSAPVTLIYNNNNRPSDIPSRFSGSTSGSTGTLTITGVRAEDEAVYYCGSFDSSTDAIFGAGTTLTVL", "Answer label": "not met"}
{"Molecule": "10H1: chicken antibody, VH SEQ ID NO 211, VL SEQ ID NO 233 (antibody, V domains shown, Synthetic 10H1, VH; Synthetic 10H1, VL) VH: AVTLDESGGGLQTPGGALSLVCKASGFTFSGYGMGWMRQAPGKGLEYVARINSAGSDTDYGAAVKGRATISRDNGQSTVRLQLNNLRAEDTATYFCTRGGGGASIDGWGHGTEVIVSS VL: ALTQPSSVSANPGETVKITCSGGGNYYGSYYYGWYQQKAPGSAPVTVIYNNNNRPSNIPSRFSGSKSGSTGTLTITGVQAEDEAVYFCGGFDSSSDAIFGAGTTLTVL", "Answer label": "met"}

Here is the next item to consider.
# input Decide: is the reported value of Span (%) for 9A5: chicken antibody, VH SEQ ID NO 208, VL SEQ ID NO 230 (antibody, V domains shown, Synthetic 9A5, VH; Synthetic 9A5, VL) VH: AVTLDESGGGLQTPGGAVSLVCKASGFSISDYGMGWMRQAPGKGLQYVARIDHDGRYTDYGAVVKGRATISRDNGQSTVRLQLNNLRAEDTGTYYCTRGGGAASIDTWGHGTEVIVSS VL: ALTQPSSVSANPGETVKITCSGGGNYVGGYYYGWYQQKAPGSALVTLIYNNNNRPSNIPSRFSGSTSGSTSTLTITGVRAEDEAVYFCGSFDSSTDAIFGAGTTLTVL equal to or greater than 80%?
# output met
